B1: TPR t1 (parent)
chain: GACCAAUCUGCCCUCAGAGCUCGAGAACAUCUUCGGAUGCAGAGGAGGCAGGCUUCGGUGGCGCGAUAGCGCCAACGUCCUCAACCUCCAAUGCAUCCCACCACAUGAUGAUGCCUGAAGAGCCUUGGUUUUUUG

# Variants of: B1
# method-notes: polymerase ribozyme fitness, log enrichment relative to wild type (log ratio); higher = more active; in vitro selection for triplet polymerase activity
quantity-kind: polymerase ribozyme fitness (log ratio)

Notebook: GACCAAUCUGCCCUCAGAGCUCGAGAACAUCUUCGGCUGCAGAGGAGGCAGGCUUCGGUGGCGCGAUAGCUCCAACGUCCUCAACCUCCAAUGCAUCCCAACACAUGAUGAUGCCUGAAGAGCCUUCGUUUUUUG [A37C G71U C101A G127C] , polymerase ribozyme fitness (log ratio) read as -2.36

Item: GACCAAUCUGCCCUCAGAGCUCGAGAACAUCUUCGGAUGCAAAGGAGGCAGGCUUCGGUGGCGCGAUAGCGCCAACGUCCUCAACCUCCAAUGCAUCCCACCACAUGAUAAUGCCUGAAGAGCCUUGGUUUUUUG [G42A G110A] | polymerase ribozyme fitness (log ratio): -2.55

Sample GACCAAUCUGCCCUCAGAGCUCGAGAACAUCUUCGGAUGCAGAGGAGGCAGGCUUCGGUGGCGCGAUAGCGCCAACGUCCUCAACCUCCAGUGCAUCCCACCACAUGAUUAUGCCUGAAGAGCCUUGGUUUUUUG [A91G G110U] ; polymerase ribozyme fitness (log ratio) observed: -2.66

What the record says about GCCCAAUCUGCCGUUAGAGCUCGAGAACAUCUUCGGAUGCAGAGGAGGCAGGCUUCGGUGGUGCGAUAGCGCCAACGUCCUCAACCUCCAAUGCAUCCCACCACAUGAUGAUGCCUGAAGAGCCUUGGUUUUUUG [A2C C13G C15U C62U] : polymerase ribozyme fitness (log ratio) is -4.93

Consider GACCAACCUGCCCUCAGAGCUCGAGAACAUCUUCGGAUGCAGAGGAGGCAGGCUUCGGUGGCGCGAUAGCGUCAACGUCCUCAACCUCCAAUGCAUCCCACCACAUGAUGAUGCCUGAAGAGCCUUGGUUUUUUG [U7C C72U] . Its measured polymerase ribozyme fitness (log ratio) is 0.588

Lab note: measured polymerase ribozyme fitness (log ratio) of GACCAAUCUGCCCUCAGAGCUCAAGAACAUCUUCGGAUGCAGAGGAGGCAGGCUUCGGUGGCGCGAUAGCGCAAACGUCCUCGACCUCCAAUGCAUCCCACCACAUGAUGAUGCCUGAAUAGCCUUGGUUUUUUG [G23A C73A A83G G120U] was -6.38

Lookup result for GACCAAUAUGCCCUCAGAGCUCGAGAACAUCUUCGGAUGCAGAGGAGGCAGGCUUCGGUGGCGUGAUAGCGCCAACGUCCUCAACCUCCAAUGCGUCCCACCACAUGAUGGUGCCUGAAGAUCCUUGGUUUUUUA [C8A C64U A95G A111G G122U G135A] ; measured polymerase ribozyme fitness (log ratio): -0.12

For reference, reported polymerase ribozyme fitness (log ratio) for GACCAAUAUGCCCUCAGAGCUCGAGAACAUCUUCGGAUGCAGAGGUGGCAGGCUUCGGUGGCGCGAUAGCGCCAACGUCCUCAACCUCCAAUGCAUCCCACCACAUGAUGAUGCCUGAAGAGCCUUGGUUUUUUG [C8A A46U] stands at -1.5

Sure, the documented polymerase ribozyme fitness (log ratio) for GACCUAUCUGCCCUCAGAGCUCGAGAACAUCUUCGGAUGCAGAGGAGGCAGGCUUCGGUGGCGCGAUAGCGCCAACGUCCUCAACCUCCAAUGCAUCCCACCAUAUGAUGAAGCCUGAAUAGCCUUGGUUUUUUG [A5U C104U U112A G120U] is -0.575

The variant GACCAAUCUGCCCUCAGAGCUCGAGAACAUCUUCGGAUGCAGAGGAGUCAGGCUUAGGUGGCGCGAUAGCGCCAACGUCCUCAACCUCCAAUGCAUCCCACCACAUGAUGAUGCCUGAAGAGCCUUGGUUUUUUG [G48U C56A] showed polymerase ribozyme fitness (log ratio) equal to -1.75

Lab book: polymerase ribozyme fitness (log ratio) of GACCCAUCUGCCCUCAGAGCUCGAGAACAUCUUCGGAUGCAGAGGAGGCAGGCUUCGGUGGCGCGAUAGCGCAAACGUCCUCAACCUCCAAUGCAUCCCACAACAUGAUGAUGCCUGAAGAGCCUUGGUUUUUUG [A5C C73A C102A] noted as -2.49

variant GACCAAUCUGCCCUCAGAGCUCGAGAACAUCUUCGGAUGCAGAGGAGUCAGGCUUCGGUGGCGCGAUAGCGCCAACGUCCUCAACCUCCAAUGCAUCCCACCACAUGAUGAUGGCUCAACAGCCUUGGUUUUUUG [G48U C114G G117C G120C] , polymerase ribozyme fitness (log ratio) observed: -6.82

GET /value?item= GACCAAUCUGCCCUCAGAGCUCGAGAACAUCUUCGGAUGCAGGGGAGGCAGGCUUCGGUGUCGCGAUAGCGCCAACGUCCUCAACCUCCAAUGGAUCCCACCUCAUGAUGAUGGCUGAAGAGCCUUGGUUUUUUG [A43G G61U C94G A103U C114G] &field=polymerase ribozyme fitness (log ratio) returns -5.99

The variant listed as GACCAAUCUGCCCUCAGAGCUCGAGAACAUCUUCGGAUGCAGAGGAGGCAGGCUUCGGUGGCGCGAUAGCGCCAACGUCCUCAACCUCCAAUGCAUCCCACCACAUGAUUAUGCCUCAAGAGCCUUGGUUUUUUG [G110U G117C] shows polymerase ribozyme fitness (log ratio) equal to -5.42

The value of polymerase ribozyme fitness (log ratio) measured for the variant GACCAAUCUGCCCUCAGAGCUCGAGAACAUCUUCGGAUGCAGAGGAGGCAGGCUUCGGUGGCACGAUAGCGCCAACCUCCUCAACCUCCAAUGCAUCCCACCACAUGAUGAUGCCUGAUGAGCCUUGGUUUUUUG [G63A G77C A119U] turned out to be -2.08

Looking up GACCAAUCUGCCCUCAGAGCUCGAGAACAUCUUCGGAUGCAGAGGAGUCAGGCUUCGGUGGCGCGAUAGCGCCAACGCCCUCAACCUCCAAAGCAUCCCACCACUUGAUGAUGCCUGAAGUGCCUUGGUUUUUUG [G48U U78C U92A A105U A121U] , I found its polymerase ribozyme fitness (log ratio) recorded as -5.76

For this variant ( GACCAAUCUGCCCUCAGAGCUCGAGAACAUCUUCGGAUGCAGAGGUGGCAGGCUUCGGUGGCGCGAUAGCGCCAACCUCCUCAACCUCCAAUGCAUCCCACCACAUGAUGAUGCUUGAAGAACCUUGGUCUUUUG [A46U G77C C115U G122A U130C] ), measured polymerase ribozyme fitness (log ratio) is -4.76

Entry GGCCAAUCUGCCCUCAGUGCUCGAGAAGAUCUUCGGAUGCAGAGGAGGCAGGCUUCGGUGGCGCGAUAGCGCCAACGUCCUCAACCUCCAAUGCAUCCCACCACAUGAUGAUGCCUGAAGAGCAUUGGUCUUUUG [A2G A18U C28G C124A U130C] — recorded polymerase ribozyme fitness (log ratio) = -5.83

Reported polymerase ribozyme fitness (log ratio) of GACCAAUUUGCCCUCAGAGCUCGAGAACAUCUUUAGAUGCAGAGGAGGCAGGCUUCGGUGGCGCGAUAGCGCCAACGUCCUCAACCUCCAAUGCAUCCCAACACAUGAUGAUGUCUGAAGAGCCUUGGUUUUUUG [C8U C34U G35A C101A C114U] : -6.15

The variant listed as GACCAAUCUGCCCGCAGAGCUUGAGAACGUCUUCGGAUGCAGAGGAGGCAGGCUUCGGUGGCGCGAUAGCGCCAACGUCCUCAACCUCCAAUGCAUCCCACCACAUGAUGAUGCCUGAAGAGCGUUGGCUUUUUG [U14G C22U A29G C124G U129C] shows polymerase ribozyme fitness (log ratio) equal to -3.15

polymerase ribozyme fitness (log ratio) reported for this variant GACCAAUCUGCCCUCAGAGCUCGAGAACAUCUUCGGAUGCAGAGGAGGGAGGCUUCGGUGGCGAGAUAGCGCCAACUUCCUCUACCUCCAAUGCAUCCCACCACAUGAUGAUGCCUGAAUAGCCUUGGUUUUUUG [C49G C64A G77U A83U G120U] : -6.63

Form field polymerase ribozyme fitness (log ratio), entry GACCAAUCUGCCCUGAGAGCUCGAGAACAUCUUCGGAUGCAGAGGAGGCAGGCUUCGGUGGAGCGAUAGCGCCAACGUCCUCAACCUCCAAUGCAUCCCACCACAUGAUGAUGCCUGAAGAGCCUUGGUUUUUUG [C15G C62A] : -3.96
